Values were extracted from paper PMC7071106.

- Tested on: Trichomonas vaginalis
- protocol-summary: In vitro trichomonicidal susceptibility assay (trophozoite growth inhibition)
- Type: cell-based, Trichomonas vaginalis strain GT3
- details: Trichomonas vaginalis; trophozoites, 48 h incubation then 48 h subculture; means of three experiments; read-out: IC50 T. vaginalis
Please respond with reported pIC50 for every item in the list.
Notebook: values listed as pIC50 are -log10 of the concentration (mol/L).

q: Can you look up the measured pIC50 of Cc1ncc([N+](=O)[O-])n1CC(C)OC(=O)Nc1ccc(Cl)cc1 (stereo not drawn) for me?
a: 5.23

q: Dear colleague, I am looking for the recorded pIC50 of the following compound: Cc1ncc([N+](=O)[O-])n1CC(C)O (stereo not drawn) [Secnidazole, secnidazole, reference compound]
a: 4.87

q: Consider the compound shown here: `Cc1ncc([N+](=O)[O-])n1CCOC(=O)NC1CCCCC1` What is its recorded pIC50?
a: 7.22
